// data source = ChEMBL document CHEMBL1201862

- Tested on: SNB-78
- test: NCI tumour cell line growth inhibition, 48 h
Calls of active or inactive are those of the source. No stated cut-off is given here; in the data, active = GI50 up to about 1.1 µM and inactive = higher.
# Lookup of reported GI50 keyed by entry

Below are worked cases with known answers.
molecule | GI50
COc1ccccc1NS(=O)(=O)c1cc(C(C)(C)C)ccc1OCCOc1ccc(C(C)(C)C)cc1S(=O)(=O)Nc1ccccc1OC | > 100 µM (inactive)
CNC(=S)N(C)C(=S)Nn1c(=O)c(C)nn(C)c1=S | > 100 µM (inactive)
COC(=O)N/N=C(/c1nc2ccc([N+](=O)[O-])cc2nc1O)C(O)c1ccc(OC)c(OC)c1 (stereo not given) | 28.4 µM (inactive)
O=C1/C(=C/c2ccccc2)CN(C(=O)OCc2ccccc2)C/C1=C\c1ccccc1 | 14.8 µM (inactive)

Note: attention shifts to another entry.
Reported GI50 for CCCC1(CC(=O)O)OCCc2c1[nH]c1ccccc21 (stereo not given) was > 100 µM (inactive)

###

- Tested on: A498
- test: NCI tumour cell line growth inhibition, 48 h
Activity calls are given as the source filed them. Cut-off read from the data, not from the text of the source: active = GI50 up to about 1.1 µM and inactive = higher.
Mark one answer only. Choices: T (active), F (inactive)

compound | group-label
Cn1c2ccccc2n2c(=O)c(-c3ccc(O)cc3)nnc12 | F
COc1ccc(C2C(C=O)C(N3CCN(C)CC3)=Nc3nc4ccccc4n32)cc1 (stereo unspecified) | F
CN1CCOC1(C)CO (stereo unspecified) | F
Cc1ncc(CBr)c(CBr)c1O | F
Cc1cc(O)cc(O)c1/N=N/c1ccc([N+](=O)[O-])cc1 | F

Can you look up the reported call for `CC(=O)NNc1nc(C)c(C(=O)/C=C/c2cccc([N+](=O)[O-])c2)s1` for me?
F

Dear colleague, could you share the recorded outcome for COc1cc(Br)c(CC2NCCc3cc(OC)c(OC)cc32)cc1OC (stereo unspecified) when you have a moment?
F

Recorded call for `OC/C=C/[C@H](OCc1ccccc1)[C@H](/C=C/CO)OCc1ccccc1` ?
F

What is the recorded call for this compound in the test? `CC(=O)Oc1c(OC(C)C)cc(=O)n2ccsc12`
F

Assay outcome for CCC1CN(C(=O)c2ccccc2)C(Cc2c[nH]c3ccccc23)C(=O)C1CC(=O)OC (stereo unspecified) : what was it?
T

Look up the recorded call for OCC(O)C(O)C(C=NNc1ncnc2ccc(Br)cc12)=NNc1ncnc2ccc(Br)cc12 (stereo unspecified) in this test.
F

###

- Tested on: OVCAR-8
- test: NCI tumour cell line growth inhibition, 48 h
The source made the active and inactive calls. Rule as the data show it: active = GI50 up to about 1.1 µM and inactive = higher.
# valid calls are active, inactive; nothing else

Example results:
compound | group-label
O=C1CS(=O)(=O)C(c2cccc(Oc3ccccc3)c2)N1c1ccccc1 (stereo not given) | inactive
O=C(CCC(=O)Nc1cccc(Cl)c1)CC(=O)c1ccc(Cl)cc1 | inactive
CCOC(=O)/N=C(\N)SCc1ccccc1 | inactive
O=S(=O)(SC1=NCCN1)c1cccc2ccccc12 | inactive
CC(=O)NNc1nc(C)c(C(=O)/C=C/c2cccc([N+](=O)[O-])c2)s1 | inactive
CN(C)C(=O)OC(Cn1cncn1)c1ccc(Cl)cc1Cl (stereo not given) | inactive
COc1ccc2c(c1)C=C([N+](=O)[O-])C(C1OC(C)(C)OC1C1COC(C)(C)O1)O2 (stereo not given) | inactive
CN1CCOC1(C)CO (stereo not given) | inactive
COC[C@@H]1[C@H]2OC(C)(C)O[C@H]2C(=O)N1C(=O)c1ccc(OC)cc1 | inactive
C/C(=N\NS(=O)(=O)c1ccc([N+](=O)[O-])cc1)c1ccc[n+]([O-])n1 | inactive

What was the test verdict on Cc1c2c(OCC(O)CN3CCN(c4ccccc4)CC3)nn(C)c(=O)c2c(C)n1-c1ccccc1 (stereo not given) ?
inactive
